# Target under test: UniProt P37023
# Sequence (P37023 22-503): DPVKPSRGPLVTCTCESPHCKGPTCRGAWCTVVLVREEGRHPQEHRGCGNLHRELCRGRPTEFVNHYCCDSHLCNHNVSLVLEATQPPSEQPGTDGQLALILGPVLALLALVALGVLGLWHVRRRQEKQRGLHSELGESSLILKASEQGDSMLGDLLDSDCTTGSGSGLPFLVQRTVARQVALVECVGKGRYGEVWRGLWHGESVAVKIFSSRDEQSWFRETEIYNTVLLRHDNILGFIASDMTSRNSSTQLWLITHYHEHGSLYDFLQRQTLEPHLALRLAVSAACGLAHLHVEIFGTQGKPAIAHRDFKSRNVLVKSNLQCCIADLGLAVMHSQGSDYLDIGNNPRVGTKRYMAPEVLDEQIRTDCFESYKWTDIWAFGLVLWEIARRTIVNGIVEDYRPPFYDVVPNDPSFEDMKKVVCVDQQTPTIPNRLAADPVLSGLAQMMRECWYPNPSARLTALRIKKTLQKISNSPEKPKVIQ
# Assay overview: TR-FRET enzymatic ALK kinase assay, ALK1
Structures can show the parent of a compound that is named as a salt.
Endpoint name: IC50 (µM)

# example entries with known answers
CC(O)c1cccc(-c2cnn3cc(-c4ccc(C5CCCCN5)cc4)cnc23)c1 (stereo not shown)    0.67
C[C@H](O)c1cccc(-c2cnn3cc(-c4ccc(OCCN5CCCC5)cc4)cnc23)c1    1.3

P. CS(=O)(=O)c1cccc(-c2cnn3cc(-c4ccc(CC5CCNCC5)cc4)cnc23)c1 [Compound 126, TFA]
Q. C[C@@H]1CNC[C@H](C)N1c1ccc(-c2cnc3c(-c4ccc(S(N)(=O)=O)cc4)cnn3c2)cc1
Ask: P or Q : whose IC50 is greater? // output: label of the selected item
Result: Q
(Q: 1.79 µM, P: 0.9 µM)
